Where do these numbers come from? They come from patent US10633338B2.

assay.target: androgen receptor (AR) (Homo sapiens, UniProt P10275, T878A)
Construct: stably transfected eGFP-expressing LNCaP human prostate cancer cells (LN-ARR2PB-eGFP) containing an androgen responsive probasin-derived promoter; endogenous in cells; host or cells: LNCaP (LN-ARR2PB-eGFP)
Sequence (P10275 1-920 T878A): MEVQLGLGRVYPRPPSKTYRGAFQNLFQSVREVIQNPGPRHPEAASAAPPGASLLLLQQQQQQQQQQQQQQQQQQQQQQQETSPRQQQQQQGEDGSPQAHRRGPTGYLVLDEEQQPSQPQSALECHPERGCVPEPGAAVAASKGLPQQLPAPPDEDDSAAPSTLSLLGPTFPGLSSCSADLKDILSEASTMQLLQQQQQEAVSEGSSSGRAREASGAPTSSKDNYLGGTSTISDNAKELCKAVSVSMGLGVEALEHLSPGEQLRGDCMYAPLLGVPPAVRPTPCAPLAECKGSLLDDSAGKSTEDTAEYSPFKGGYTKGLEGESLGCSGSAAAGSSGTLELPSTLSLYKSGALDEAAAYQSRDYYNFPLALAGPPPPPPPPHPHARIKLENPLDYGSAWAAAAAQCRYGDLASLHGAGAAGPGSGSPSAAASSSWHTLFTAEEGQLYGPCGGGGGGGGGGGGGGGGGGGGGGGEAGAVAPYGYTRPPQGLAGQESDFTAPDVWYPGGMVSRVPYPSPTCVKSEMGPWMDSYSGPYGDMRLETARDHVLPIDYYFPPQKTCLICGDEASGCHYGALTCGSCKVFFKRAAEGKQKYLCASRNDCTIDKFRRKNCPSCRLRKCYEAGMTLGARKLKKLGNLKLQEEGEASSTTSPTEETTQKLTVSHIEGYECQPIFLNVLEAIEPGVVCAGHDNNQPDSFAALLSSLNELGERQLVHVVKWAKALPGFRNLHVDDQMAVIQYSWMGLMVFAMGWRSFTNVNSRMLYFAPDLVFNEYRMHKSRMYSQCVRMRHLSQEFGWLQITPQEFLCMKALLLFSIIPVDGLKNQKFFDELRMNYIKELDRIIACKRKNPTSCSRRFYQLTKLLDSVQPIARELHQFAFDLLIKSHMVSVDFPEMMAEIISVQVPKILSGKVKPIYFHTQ
run.description: eGFP cellular AR transcription assay
Assay type: cell-based
study.conditions: LN-ARR2PBeGFP LNCaP cells, 0.1 nM R1881, 3 days incubation; read-out: eGFP IC50
readout.kind: IC50 (µM)

- compound: "FC(F)(F)c1cccc(/N=C/c2c[nH]c3ccccc23)c1"
  IC50 (µM): 4.5
- compound: "Brc1cccc2c(-c3cnc4ccccc4c3)c[nH]c12"
  IC50 (µM): 1.13
- compound: "Fc1cc(F)c2[nH]cc(-c3ccc4c(Cl)cccc4n3)c2c1F"
  IC50 (µM): 0.16

1. CC1(C)c2ccc(Br)cc2NC1c1c[nH]c2c(OCc3ccccc3)cccc12 (stereo not drawn)
2. Cc1cc(F)c2[nH]cc(-c3ccc4ccccc4n3)c2c1
3. CN1c2ccccc2C[C@H]1c1c[nH]c2ccccc12
4. CC1(C)c2ccccc2NC1c1c[nH]c2ncccc12 (stereo not drawn) [Compound 13560]
5. N#Cc1cccc2c(-c3ccc4cccc(Cl)c4n3)c[nH]c12
Q. List items by IC50 in falling order. Respond with an ordered listing of the labels, as requested.
A. 1, 4, 2, 3, 5
(1: 3.7 µM, 4: 2.3 µM, 2: 1.44 µM, 3: 0.77 µM, 5: 0.036 µM)
